B1: POU domain, class 3, transcription factor 3, residues 408 to 463; numbered along this chain, P20264 (parent)
chain: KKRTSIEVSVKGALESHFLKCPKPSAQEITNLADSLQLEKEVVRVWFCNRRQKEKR

- Variants of: B1
- assayDetails: abundance fitness (aPCA) (normalised: wild type 0, dead -1); higher = more abundant; growth selection in yeast, the domain comes from the species named
- condition: Homo sapiens
Threshold rule: abundance fitness greater than or equal to -0.4 is MET; below that, NOT MET.

macromoleculeSequence | assignedLabel
KKRTSIEVSVKGALESHFLKCPKPSAQEITNLADSLQLEKEVVRVWFCNRRQKECR [K55C] | MET
KKRTEIEVSVKGALESHFLKCPKPSAQEITNLADSLQLEKEVVRVWFCNRRQKEKR [S5E] | MET
KKRTSIEVSVKGALESHFLKCPKPSAQEITNPADSLQLEKEVVRVWFCNRRQKEKR [L32P] | NOT MET
KKRTSIQVSVKGALESHFLKCPKPSAQEITNLADSLQLEKEVVRVWFCNRRQKEKR [E7Q] | MET
KKRDSIEVSVKGALESHFLKCPKPSAQEITNLADSLQLEKEVVRVWFCNRRQKEKR [T4D] | MET
KKRTSIEVSVKGALESHFLKCPKPSAQEITNLADSLQLEKEVGRVWFCNRRQKEKR [V43G] | NOT MET
KKRTSIEYSVKGALESHFLKCPKPSAQEITNLADSLQLEKEVVRVWFCNRRQKEKR [V8Y] | MET
KKRTSIEVSVKGALESHELKCPKPSAQEITNLADSLQLEKEVVRVWFCNRRQKEKR [F18E] | NOT MET
KKRTSIEVSVKGALESHFLKCPKPSAQEITNLADSLQLEKEVVRVWMCNRRQKEKR [F47M] | MET
KKRTSIEVSVKGALESHFLKCPKPSASEITNLADSLQLEKEVVRVWFCNRRQKEKR [Q27S] | MET
KKRTSIEVSVKGALESHFLKCPKPSAQEITNLADSLQLEKEVVRVWFCNRHQKEKR [R51H] | MET
KKRTSIEVSVKGALESHFLKCPKPSAQEITNLADSLQLEKEVVRVWFCNRQQKEKR [R51Q] | MET
KKRTSIEVSVKGALESHFLKCPKPSAQEITNLADSLQHEKEVVRVWFCNRRQKEKR [L38H] | NOT MET
KKRTSIEVSVKTALESHFLKCPKPSAQEITNLADSLQLEKEVVRVWFCNRRQKEKR [G12T] | MET
KKRTSIEVSVKGALESHFLKCPKPSAQEITNLADSLQLEKEVRRVWFCNRRQKEKR [V43R] | NOT MET
KKRTSIEVSVKKALESHFLKCPKPSAQEITNLADSLQLEKEVVRVWFCNRRQKEKR [G12K] | MET
KKRTSIEVSVKGALESHFLKCPKISAQEITNLADSLQLEKEVVRVWFCNRRQKEKR [P24I] | NOT MET
KKSTSIEVSVKGALESHFLKCPKPSAQEITNLADSLQLEKEVVRVWFCNRRQKEKR [R3S] | MET
KKRTSIEVSVKGALESHFLKCPKPSAQEITNLADSLQLEKEVVRVWFCNRRQKEKW [R56W] | MET
KKRTSIEVSVKGALESHFLKCPKPSAQEPTNLADSLQLEKEVVRVWFCNRRQKEKR [I29P] | NOT MET
